These measurements were taken from paper PMC4552634.

tested on: P. falciparum stage V gametocytes; set-up: BacTiter-Glo ATP luminescence viability of purified stage V gametocytes in 384-well plates, per cent inhibition versus DMSO; conditions: 48 h, 5 µM; inhibitor
In all, about 13,000 compounds went through this assay and about 3,200 (25%) showed an effect of 50% or more. Some of the results follow.
% Inhibition below 30% gives F; % Inhibition at or above it gives T.

1. CCOC(=O)c1ccc(-c2c(C(F)(F)F)noc2-c2cc(CC)c(OC)cc2O)o1 :: F
2. COc1ccc(NC(=O)C2c3ccccc3C(=O)N(C3CCCC3)C2c2cccs2)cc1 (centres unmarked) :: T
3. COc1ccc(Cl)cc1NC(=O)Nc1ccc2c(c1)CCN(C1CCC1)CC2 :: F
4. O=C(c1ccc([N+](=O)[O-])o1)N1CCN(c2nc3c(F)cc(F)cc3s2)CC1 :: T
5. COc1ccc(NC(=O)C2c3ccccc3C(=O)N(C3CCCC3)C2c2cccs2)cc1OC (centres unmarked) :: T
6. Cc1cc(N[C@@H](Cc2ccccc2)C(=O)NCCc2ccccc2)nc(NCC2CCCCC2)n1 :: F
7. O=C(NCCN1CCCCC1)c1ccc(CNC(=O)c2ccc(O)c(-c3ccc(Cl)c(Cl)c3)c2)cc1 :: F
8. CCC(C(=O)Nc1cc(=O)[nH]c2nc(-c3ccco3)nn12)c1ccccc1 (centres unmarked) :: F
9. N=C(N)c1ccc(NCc2cccc(C(=O)O)c2)cc1 :: F
10. CCc1cc(C(=O)c2cccc(C)c2)c(NC(=O)CN2CCN(C(=O)c3ccco3)CC2)s1 :: F
11. COc1ccc(C2CC(=O)C3=C(C2)NC(C)=C(C(=O)OC(C)C)C3c2c(F)cccc2Cl)cc1OC (centres unmarked) :: T
12. O=C1OC2(CN1CC1CCN(Cc3ccc(-n4ccnc4)cc3)C1)c1ccccc1-c1ccccc12 (centres unmarked) :: F
13. CCCC(C)NC(=O)C(N)Cc1cccc(I)c1 (centres unmarked) :: F
14. Cc1ccc2sc(N(CCCn3ccnc3)C(=O)c3ccco3)nc2c1C :: F
15. CCOc1cc(C(=O)N[C@@H](Cc2ccccc2)[C@H](O)CNCc2cc(OC)cc(OC)c2)cc(N2CCCS2(=O)=O)c1 :: F
16. COc1cc(C(F)(F)F)c2cc(CNCCCNc3nc4ccccc4[nH]3)[nH]c2c1 :: T
17. COc1ccc(NC(=O)Nc2ccc(Nc3nc(C)cc(N4CCCC4)n3)cc2)cc1 :: F
